System: NCI-H460 lung
Test: NCI tumour cell line growth inhibition, 48 h
Quick reference: TGI of the listed items.
recorded_endpoint: TGI

1) CNc1cc2c(c3ccccc13)C(CCl)CN2C(=O)c1cc2cc(OC)c(OC)c(OC)c2[nH]1 (stereo not given)	0.00226 µM
2) S=c1[nH]c(=S)c2cc3ccccc3nc2[nH]1	> 100 µM
3) CCC[CH2][Sn]([CH2]CCC)([O]C(=O)c1ccc(OC)c(OC)c1OC)[O][Sn]([CH2]CCC)([CH2]CCC)[O]C(=O)c1ccc(OC)c(OC)c1OC	2.55 µM
4) CCCCCCCCCCCCCCCC(=O)OCCOCCOCCOCc1ccccc1	> 100 µM
5) Cc1c2cc[n+](C)c(C)c2cc2c1[nH]c1ccccc12	26.5 µM

* * *

Tested on: SK-MEL-28 melanoma
Assay: NCI tumour cell line growth inhibition, 48 h; in the data active = GI50 below about 0.43 µM; inactive = the rest
Labels: y (active), n (inactive)

1. O=C(Nc1ccc(Br)cc1F)c1cc(Cl)ccc1O	y
2. Nc1ncn([C@@H]2O[C@H](CO)[C@@H](O)[C@H]2O)c(=O)n1	n
3. COc1cc(N(CCC#N)CCC#N)ccc1/C(N=Nc1ccc(Cl)cc1)=N/NC(=O)c1cc(Br)ccc1O	n
4. COc1ccc(-c2ccc(=O)oc2C#Cc2cc(OC)c(OC)c(OC)c2)cc1O	n
5. COC(=O)c1c2c(c(C)[n+]([O-])c1C)C(=O)C=C(NCc1ccc(F)cc1)C2=O	n
6. Cc1cc(N[C@@H]2CCC[C@H](Nc3ccnc4cc(Cl)ccc34)C2)nc(N2CCCCCC2)n1	n

* * *

Tested on: LXFL 529 NSCLC
Test: NCI tumour cell line growth inhibition, 48 h
recorded_endpoint: TGI (µM)

1. COc1c(O)c2c(=O)cc3c4c5c(cc(=O)c6c(O)c(OC)c(CC(C)O)c(c(c1CC(C)O)c24)c65)OCO3 (stereo not given)	11.4
2. O=C(Nc1cccc(Cl)c1)C(=O)C(C(=O)c1ccc2ccccc2c1)C1OC(=O)c2ccccc21 (stereo not given)	21.9
3. O=C1CCC2(c3ccc(Cl)cc3)Nc3cc(Cl)ccc3N12 (stereo not given)	24.6
4. CC(C)C1=Cc2ccc3c(c2C(=O)C1=O)CCCC3(C)C	3.45
5. Cc1ccc2nc(/C(=C/c3ccc(/C=C(\NC(=O)c4ccccc4)c4nc5ccc(C)cc5[nH]4)c(C)c3)NC(=O)c3ccccc3)[nH]c2c1	12.2
6. CN1CCC(=O)/C(=C/c2ccccc2)C1	17.6

* * *

System: M14 melanoma
Test: NCI tumour cell line growth inhibition, 48 h
This listing pairs compounds with measured TGI.
recorded_endpoint: TGI

1) Cc1c(O)nc(-n2[nH]c3c(c2=O)CCCC3)[nH]c1=O	> 100 µM
2) COC1C(OC(=S)Nc2ccccc2)c2ccccc2N1C(C)=O (stereo not given)	> 100 µM
3) S=c1[nH]c(=S)c2cc3ccccc3nc2[nH]1	> 100 µM
4) CCC[CH2][Sn]([CH2]CCC)([O]C(=O)c1ccc(OC)c(OC)c1OC)[O][Sn]([CH2]CCC)([CH2]CCC)[O]C(=O)c1ccc(OC)c(OC)c1OC	0.583 µM
5) NC(N)=NCCCC(=O)O	> 100 µM
6) O=C(Cc1ccc(F)c(Cl)c1)Nc1cc(C2(C(F)(F)F)CC2)nn1CC1CCCCC1	> 15 µM
7) O=C(O)C(Cl)(Cl)Cl	> 100 µM
8) Nc1ncc(-c2ccc3ncnc(Nc4ccc(F)c(Cl)c4)c3c2)cn1	17.1 µM
9) O=[N+]([O-])C(=C(Nc1ccccc1)Nc1ccccc1)C(Cl)=C(Cl)Cl	36.1 µM
10) CC1OC(c2ccc3c(OCc4ccccc4)cccc3c2O)CC(OCc2ccccc2)[C@H]1OCc1ccccc1 (stereo not given in full)	> 10 µM

Source of measurements: PubChem BioAssay (NCI)
